System: Calcium/calmodulin-dependent protein kinase type II subunit alpha (Homo sapiens);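 also: reported values are averages (mean inhibition of CAMK2A)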
Experimental setup: at 0.1 µM
inhibition values for the compounds below.
Give just the number in %; leave the unit off.

Please review the following examples before continuing.
NS(=O)(=O)c1ccc(-c2cc3ccncc3cc2OCc2ccccc2)cc1 :: 1.83
CCOc1nccc2c1nc(-c1nonc1N)n2CC :: 3.45

In: What value of inhibition has been reported for the following compound? CN1CCN(C(=O)c2ccc(NC(=O)Nc3ccc(N(C)c4ccnc(Nc5ccc(CS(C)(=O)=O)cc5)n4)cc3)cc2)CC1
Out: 1.63

In: Requested field: inhibition. Item: Nc1nccc(-c2c(-c3ccc(F)cc3)nn3cc(C(F)(F)F)ccc23)n1
Out: 0.49

In: Quick check: inhibition of C[C@@H](Oc1cc(-n2cnc3ccc(OCC4CCN(C)CC4)cc32)sc1C(N)=O)c1ccccc1C(F)(F)F ?
Out: -0.63

In: Given Cc1ccc(Nc2ccnc(Nc3cccc(C(N)=O)c3)n2)cc1O , state its recorded inhibition.
Out: 3.21

In: // inhibition lookup, key: OCc1ccc(-c2nc(-c3ccccn3)c(-c3ccc4c(c3)OCO4)[nH]2)cc1
Out: 4.98

In: Name the reported inhibition value associated with the compound CN(C)C(=O)O[C@@H]1CN[C@@H](C#Cc2cc3ncnc(Nc4ccc(OCc5cccc(F)c5)c(Cl)c4)c3s2)C1
Out: 1.78

---

Overview of recorded inhibition for various compounds
System: Serine/threonine-protein kinase Sgk3 (Homo sapiens)
Experimental setup: at 1 µM

Past entries and their recorded results:
CN(C)CCCn1c(-c2nonc2N)nc2cnccc21 :: 3.38%
NC(=O)c1cccc(Nc2nccc(Nc3cccc(F)c3)n2)c1 :: -1.45%
OCc1ccc(-c2nc(-c3ccccn3)c(-c3ccc4c(c3)OCO4)[nH]2)cc1 :: 2.86%
c1ccc(Nc2ncc(-c3ccccc3)o2)cc1 :: 2.32%
CCOc1nccc2c1nc(-c1nonc1N)n2CC :: 15.9%

In: Look up inhibition with Serine/threonine-protein kinase Sgk3 (Homo sapiens) for this compound: CS(=O)(=O)CCNCc1nc(-c2ccc3ncnc(Nc4ccc(OCc5cccc(C(F)(F)F)c5)cc4)c3c2)cs1
Out: 1.17%

In: Param readout= inhibition; system= Serine/threonine-protein kinase Sgk3 (Homo sapiens); entry= COc1cc2ncn(-c3cc(OCc4ccccc4S(C)(=O)=O)c(C#N)s3)c2cc1OC ; returns value.
Out: 4.05%

In: Please provide the recorded inhibition for Nc1nccc(C#Cc2cncnc2Nc2ccc(OCc3cccc(F)c3)c(Cl)c2)n1 , tested on Serine/threonine-protein kinase Sgk3 (Homo sapiens).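 Also: each value is a mean of replicate inhibition readings.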
Out: 3.95%

---

System: Activated CDC42 kinase 1 (Homo sapiens) (UniProt Q07912)
Sequence (Q07912 whole entry, looked up): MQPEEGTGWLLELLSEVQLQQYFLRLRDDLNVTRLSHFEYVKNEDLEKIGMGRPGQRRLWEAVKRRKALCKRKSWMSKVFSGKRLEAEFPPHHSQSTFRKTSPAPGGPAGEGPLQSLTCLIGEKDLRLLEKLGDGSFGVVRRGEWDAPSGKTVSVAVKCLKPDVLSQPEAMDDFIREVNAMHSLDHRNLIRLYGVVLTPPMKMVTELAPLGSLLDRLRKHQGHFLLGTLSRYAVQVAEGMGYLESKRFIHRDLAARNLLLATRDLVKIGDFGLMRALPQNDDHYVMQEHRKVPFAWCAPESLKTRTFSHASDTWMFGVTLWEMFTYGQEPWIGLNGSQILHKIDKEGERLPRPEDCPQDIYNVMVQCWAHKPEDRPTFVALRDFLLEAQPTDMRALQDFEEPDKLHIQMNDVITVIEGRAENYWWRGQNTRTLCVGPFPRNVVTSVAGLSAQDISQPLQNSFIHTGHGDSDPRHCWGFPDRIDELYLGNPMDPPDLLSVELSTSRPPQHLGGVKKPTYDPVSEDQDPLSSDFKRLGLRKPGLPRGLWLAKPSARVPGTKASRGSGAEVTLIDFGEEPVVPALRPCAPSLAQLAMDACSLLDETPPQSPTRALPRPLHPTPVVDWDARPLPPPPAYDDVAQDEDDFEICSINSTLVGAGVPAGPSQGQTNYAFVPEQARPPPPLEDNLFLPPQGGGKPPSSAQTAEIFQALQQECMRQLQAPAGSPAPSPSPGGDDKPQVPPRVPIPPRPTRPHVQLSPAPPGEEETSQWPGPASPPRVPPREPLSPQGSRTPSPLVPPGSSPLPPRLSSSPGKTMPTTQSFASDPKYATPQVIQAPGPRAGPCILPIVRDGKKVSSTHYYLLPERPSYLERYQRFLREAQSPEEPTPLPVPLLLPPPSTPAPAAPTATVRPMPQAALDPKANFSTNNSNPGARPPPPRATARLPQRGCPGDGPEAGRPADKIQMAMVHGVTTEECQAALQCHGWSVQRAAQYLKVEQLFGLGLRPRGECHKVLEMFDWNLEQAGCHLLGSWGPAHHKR
Experimental setup: at 1 µM
Description: GSK_PKIS: TNK2 mean inhibition at 1 uM [Nanosyn]
Each entry below lists one item and its recorded inhibition value.
Output should be the measured figure followed by the unit it is expressed in.

N#Cc1cccc(Nc2nccc(-c3cnn4ncccc34)n2)c1 :: 11.7%

In: I would be grateful if you could share the reported inhibition for Nc1nccc(-c2c(-c3ccc(F)cc3)nn3cc(C(F)(F)F)ccc23)n1 .
Out: 0.6%

In: Query (compound): COC(=O)Nc1nc2cc(Oc3ccc(NC(=O)Nc4cccc(Br)c4)cc3)ccc2[nH]1 ; field requested: inhibition
Out: 0.1%

---

System: Protein kinase C beta type (Homo sapiens) (UniProt P05771)
Sequence (P05771 2-671 limits assumed): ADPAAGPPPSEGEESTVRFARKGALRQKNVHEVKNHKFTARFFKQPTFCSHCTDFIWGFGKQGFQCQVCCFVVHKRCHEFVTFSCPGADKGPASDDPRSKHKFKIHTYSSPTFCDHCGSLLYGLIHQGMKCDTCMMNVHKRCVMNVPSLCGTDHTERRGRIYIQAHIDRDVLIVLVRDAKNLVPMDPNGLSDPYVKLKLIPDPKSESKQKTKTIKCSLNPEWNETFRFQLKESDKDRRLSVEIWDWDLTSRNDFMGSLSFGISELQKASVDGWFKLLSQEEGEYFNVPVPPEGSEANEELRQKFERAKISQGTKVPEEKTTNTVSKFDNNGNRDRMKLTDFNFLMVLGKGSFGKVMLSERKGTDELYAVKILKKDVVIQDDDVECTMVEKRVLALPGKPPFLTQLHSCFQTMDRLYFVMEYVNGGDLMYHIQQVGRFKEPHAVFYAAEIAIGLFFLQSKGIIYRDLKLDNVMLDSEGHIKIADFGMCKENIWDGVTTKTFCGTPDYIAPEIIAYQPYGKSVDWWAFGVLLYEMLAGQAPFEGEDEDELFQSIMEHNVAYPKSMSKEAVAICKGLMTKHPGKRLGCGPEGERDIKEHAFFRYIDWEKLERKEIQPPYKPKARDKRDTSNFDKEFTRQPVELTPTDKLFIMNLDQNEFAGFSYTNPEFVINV
Experimental setup: at 0.1 µM
Description: GSK_PKIS: PKC-beta2 (splice variant) mean inhibition at 0.1 uM [Nanosyn]
Observed property: inhibition (%)
Give the quantity in %, number only.

OCc1ccc(-c2nc(-c3ccccn3)c(-c3ccc4c(c3)OCO4)[nH]2)cc1 :: 0.63
COc1cccc(-n2ncc3c(N/N=C/c4ccc(S(C)(=O)=O)cc4)ncnc32)c1 :: 2.19

Lab note: next compound to report on.
In: Request - read-out inhibition | tested on Protein kinase C beta type (Homo sapiens) (UniProt P05771) | compound Nc1nccc(-c2c(-c3ccc(F)cc3)ncn2CCCN2CCOCC2)n1;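 also: measured against the PKC-beta2 splice variant, with values reported as mean percent inhibition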
Out: 3.01

---

Recorded inhibition for the following compounds
System: Serine/threonine-protein kinase MARK2 (Homo sapiens)
Experimental setup: at 1 µM
Description: GSK_PKIS: PAR-1Balpha mean inhibition at 1 uM [Nanosyn]
Quick reminder: number only, in %, skip the unit.

c1ccc(Nc2ncc(-c3ccccc3)o2)cc1 :: 2.64
COc1ccc2ncnc(Nc3ccc(OCc4ccccc4)cc3)c2c1 :: 0.4
CCCN1CCCC(c2ccc(Nc3nc(Nc4cc(F)ccc4C(N)=O)c4cc[nH]c4n3)c(OC)c2)C1 (stereo not given) :: 40

In: Reported inhibition for NS(=O)(=O)c1ccc(-c2cc3ccncc3cc2OCc2ccccc2)cc1 : what is it?
Out: -0.56

In: Which inhibition is listed for CCn1c(-c2nonc2N)nc2ccc(F)cc21 ?
Out: -0.64

---

Readings of inhibition for the listed molecules
System: Homeodomain-interacting protein kinase 1 (Homo sapiens);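 also: each value is a mean percent inhibition of HIPK1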
Experimental setup: at 0.1 µM
Express the result in % but write the number alone.

Worked set:
CN(C)CCCn1c(-c2nonc2N)nc2cnccc21 :: 1.03
NS(=O)(=O)c1ccc(-c2cc3ccncc3cc2OCc2ccccc2)cc1 :: 1.69
COc1cccc(-n2ncc3c(N/N=C/c4ccc(C)cc4)ncnc32)c1 :: 1.58
COC(=O)c1ccc2c(c1)C(=Cc1cc(Br)c(O)c(Br)c1)C(=O)N2 :: 10.2
C[C@@H](Oc1cc(-n2cnc3ccc(OCC4CCN(C)CC4)cc32)sc1C(N)=O)c1ccccc1C(F)(F)F :: -3.51

In: Returns the measured inhibition for the input molecule. Input: c1ccc(Nc2ncc(-c3ccccc3)o2)cc1
Out: -2.56

In: Would you mind telling me what inhibition value was observed for [O-][S+]1CCN(Cc2ccc(-c3ccc4ncnc(Nc5ccc(OCc6ccccc6)c(Cl)c5)c4c3)o2)CC1 ?
Out: -1.84

In: I am curious: what inhibition value has been reported for O=C(Nc1ccc(Oc2ccc3[nH]c(NC(=O)c4ccco4)nc3c2)cc1)Nc1cc(C(F)(F)F)ccc1F ?
Out: -4.45

In: Using the record for COc1cc2ncn(-c3cc(OCc4ccccc4S(C)(=O)=O)c(C#N)s3)c2cc1OC , report its inhibition.
Out: 2.2

In: Consider the molecule shown here: C[C@@H](Oc1cc(-n2cnc3ccc(OC[C@@H](O)CO)cc32)sc1C(N)=O)c1ccccc1Cl What is its recorded inhibition?
Out: -0.81

In: Return reported inhibition; argument: COc1ccc2ncnc(Nc3ccc(OCc4ccccc4)cc3)c2c1
Out: 0.26

In: // inhibition lookup, key: Nc1nccc(-c2c(-c3ccc(F)cc3)ncn2CCCN2CCOCC2)n1
Out: 0.97

In: What value of inhibition has been recorded for this entry: Oc1cccc(-c2nc(-c3ccccc3)[nH]c2-c2ccncc2)c1
Out: 1.65

---

System: 3-phosphoinositide-dependent protein kinase 1 (Homo sapiens)
Experimental setup: at 0.1 µM
Observed property: inhibition (%)
Give your result in % as a bare value.

Some solved cases for reference:
Cc1ccc2c(c1)/C(=N/Nc1ccc(S(N)(=O)=O)cc1)C(=O)N2 :: 0.19
CS(=O)(=O)Nc1cccc(-c2ccc3c(NC(=O)C4CC4)n[nH]c3c2)c1 :: -0.34

In: Query the reported inhibition for 3-phosphoinositide-dependent protein kinase 1 (Homo sapiens); item: O=C1Nc2ccc(-c3cccnc3)cc2C1=Cc1cc(Br)c(O)c(Br)c1
Out: 3.18

In: Give inhibition (3-phosphoinositide-dependent protein kinase 1 (Homo sapiens)) of the following molecule: COc1cc(/C=N/Nc2ncnc3c2cnn3C(C)C)ccc1O
Out: 5.59

In: API: value(readout= inhibition, system= 3-phosphoinositide-dependent protein kinase 1 (Homo sapiens), query= CCOc1nccc2c1nc(-c1nonc1N)n2CC )
Out: 1.85

In: Form entry - test system: 3-phosphoinositide-dependent protein kinase 1 (Homo sapiens); read-out: inhibition; molecule: O=C1Nc2ccccc2/C1=C/Nc1ccc2[nH]c(=O)[nH]c2c1;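 also: values are mean inhibition of PDK1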
Out: 9.34

In: Item C[C@@H](Oc1cc(-n2cnc3ccc(OCC4CCN(C)CC4)cc32)sc1C(N)=O)c1ccccc1C(F)(F)F with 3-phosphoinositide-dependent protein kinase 1 (Homo sapiens) - inhibition?
Out: 0.45

---

Parameter inhibition: see the listing below.
System: RAC-beta serine/threonine-protein kinase (Homo sapiens)
Experimental setup: at 1 µM
Description: GSK_PKIS: AKT2 mean inhibition at 1 uM [Nanosyn]
Report the figure in % without appending any unit label.

In: Recorded inhibition for CS(=O)(=O)CCNCc1nc(-c2ccc3ncnc(Nc4ccc(OCc5cccc(C(F)(F)F)c5)cc4)c3c2)cs1 , please?
Out: 0.39

In: Requested read-out: inhibition. Entry: NS(=O)(=O)c1ccc(NC=C2C(=O)Nc3ccc4ncsc4c32)cc1
Out: 2.59

In: Fill in the blank: the reported inhibition of NS(=O)(=O)c1ccc(N/N=C2\C(=O)Nc3ccc(Cl)cc32)cc1 is ____.
Out: 2.43

In: For the compound shown here, COc1cc2ncnc(Nc3ccc4c(cnn4Cc4ccccc4)c3)c2cc1OC , give the reported inhibition.
Out: 1

---

inhibition reference
Tested on: Platelet-derived growth factor receptor alpha (Homo sapiens), P16234 [T674I]
Sequence (P16234 whole entry T674I): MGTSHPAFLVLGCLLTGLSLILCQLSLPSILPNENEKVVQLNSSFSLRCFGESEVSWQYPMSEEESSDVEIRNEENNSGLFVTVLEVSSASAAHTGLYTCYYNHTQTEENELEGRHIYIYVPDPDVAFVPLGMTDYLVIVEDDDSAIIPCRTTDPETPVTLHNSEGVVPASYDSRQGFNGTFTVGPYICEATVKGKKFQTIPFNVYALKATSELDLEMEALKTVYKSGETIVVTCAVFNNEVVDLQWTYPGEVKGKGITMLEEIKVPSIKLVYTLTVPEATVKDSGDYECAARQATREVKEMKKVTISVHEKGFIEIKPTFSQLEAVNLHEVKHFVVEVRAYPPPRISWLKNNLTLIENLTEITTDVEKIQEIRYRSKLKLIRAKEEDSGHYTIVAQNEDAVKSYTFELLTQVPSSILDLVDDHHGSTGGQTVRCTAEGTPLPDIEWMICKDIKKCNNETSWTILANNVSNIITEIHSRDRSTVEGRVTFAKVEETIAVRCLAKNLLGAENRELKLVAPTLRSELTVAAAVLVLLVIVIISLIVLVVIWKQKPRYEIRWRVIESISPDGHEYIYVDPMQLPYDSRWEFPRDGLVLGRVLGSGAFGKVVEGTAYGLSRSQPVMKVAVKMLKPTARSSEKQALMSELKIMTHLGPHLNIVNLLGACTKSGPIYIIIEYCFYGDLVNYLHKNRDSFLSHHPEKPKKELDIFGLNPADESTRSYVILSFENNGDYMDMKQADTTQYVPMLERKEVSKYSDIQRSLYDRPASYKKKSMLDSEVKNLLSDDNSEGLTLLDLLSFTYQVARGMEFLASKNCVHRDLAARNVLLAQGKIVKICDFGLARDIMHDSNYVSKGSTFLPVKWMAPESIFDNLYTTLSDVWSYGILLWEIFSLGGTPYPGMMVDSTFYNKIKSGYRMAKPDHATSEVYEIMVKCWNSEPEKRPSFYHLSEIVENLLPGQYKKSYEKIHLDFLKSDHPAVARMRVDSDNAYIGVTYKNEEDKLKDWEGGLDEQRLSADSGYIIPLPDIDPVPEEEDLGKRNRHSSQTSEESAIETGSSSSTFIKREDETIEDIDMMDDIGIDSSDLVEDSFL
Experimental setup: at 0.1 µM

CCS(=O)(=O)c1ccc(OC)c(Nc2ncc(-c3cccc(OC)c3)o2)c1 :: 4.09%
NS(=O)(=O)c1ccc(-c2cc3ccncc3cc2OCc2ccccc2)cc1 :: 3.46%
COc1ccc(-c2nn3ncccc3c2-c2ccnc(Nc3cccc(C(F)(F)F)c3)n2)cc1 :: 2.26%
COc1cccc(-n2nc(C)c3c(N/N=C(\C)c4ccncc4)ncnc32)c1 :: 1.42%
NS(=O)(=O)c1ccc(N/N=C2\C(=O)Nc3ccc(Cl)cc32)cc1 :: 11.4%
CCOc1nccc2c1nc(-c1nonc1N)n2CC :: 10.8%
COC(=O)c1cncc(/C=C/c2c(C)cc(O)cc2C)c1 :: 3.58%

As a next step, examine the compound that follows.
In: Checklist item: inhibition tested on Platelet-derived growth factor receptor alpha (Homo sapiens), P16234 [T674I], entry Cc1cc(Cl)cc2c1NC(=O)C2=NNc1ccc(S(N)(=O)=O)cc1 , value?
Out: 6.4%
